SYSTEM NAME: T1, HLA-A1 (A*0101) (human)
T1 construct: HLA class I on acid-stripped EBV-transformed B cells (B-LCL)
TEST SUMMARY: competition vs YLEPAC(FI)AKY on stripped B-LCL, FACS
In this section, each of the binders is paired with its reported IC50.

| BINDER | IC50 |
| --- | --- |
| LSHIHASSY [PRAME 267-275 LSHIHASSY] | 1000 nM |
| SLQCLQALY [PRAME 294-302 SLQCLQALY] | 2000 nM |
| CSQLTTLSFY [PRAME 405-414 CSQLTTLSFY] | < 1000 nM |
| FLSLQCLQALY [PRAME 292-302 FLSLQCLQALY] | 1000 nM |
| YISPEKEEQY [PRAME 275-284 YISPEKEEQY] | 3000 nM |

Every entry's value here was drawn from patent US20160333065A1.
